target.entity: Transient receptor potential cation channel subfamily V member 1 (Homo sapiens)
assay.method.text: Blockade of human TRPV1 receptor assessed as inhibition of capsaicin-induced calcium flux
pIC50: −log10 of the molar value.
# if value of pIC50 reaches 7, tag Fulfilled; if it stays below, tag Not fulfilled

>>> group("CN1CCC(NC(=O)Nc2cccc3[nH]ncc23)c2ccc(C(F)(F)F)cc21 (stereo unspecified)")
"Fulfilled"
>>> group("O=C(Nc1cccc2[nH]ncc12)NC1CCc2c1cccc2C(F)(F)F (stereo unspecified)")
"Fulfilled"
>>> group("Cc1cccc2c1C(NC(=O)Nc1cccc3[nH]ncc13)CC2 (stereo unspecified)")
"Not fulfilled"
>>> group("O=C(Nc1cccc2[nH]ncc12)NC1CCc2cccnc21 (stereo unspecified)")
"Not fulfilled"
>>> group("O=C(Nc1cccc2[nH]ncc12)NC1CCc2c(C3CC3)cccc21 (stereo unspecified)")
"Fulfilled"
>>> group("O=C(Nc1cccc2[nH]ncc12)NC1CCc2ncccc21 (stereo unspecified)")
"Not fulfilled"
>>> group("Cc1cccc2c1CCC2NC(=O)Nc1cccc2[nH]ncc12 (stereo unspecified)")
"Fulfilled"
>>> group("CC(C)(C)c1ccc2c(c1)CC(NC(=O)Nc1cccc3[nH]ncc13)C2 (stereo unspecified)")
"Fulfilled"
>>> group("CC(C)(C)c1ccc2c(c1)CC[C@H]2N/C(=N/C#N)Nc1cccc2[nH]ncc12")
"Fulfilled"
>>> group("CC(C)(C)c1cccc2c1CCC2NC(=O)Nc1cccc2[nH]ncc12 (stereo unspecified)")
"Fulfilled"
>>> group("CC(C)(C)c1ccc2c(c1)CC(F)(F)C2NC(=O)Nc1cccc2[nH]ncc12 (stereo unspecified)")
"Not fulfilled"

====

assay.method.text: Cmax in rat at 10 umol/kg, po administered in PEG400
Assay type: ADME, organism-based
Set-up: dose 10 umol/kg, route oral
condition.label: in vivo
readout: Cmax

>>> value_observed("CC(C)(C)c1ccc2c(c1)CC[C@H]2NC(=O)Nc1cccc2[nH]ncc12 [ABT-102]")
"250 ng/mL"

====

assay.method.text: Half life in dog at 5 umol/kg, iv administered in PEG400
Assay type: ADME, organism-based, Canis lupus familiaris
condition.label: in vivo
readout: half-life (h)

>>> value_observed("CC(C)(C)c1ccc2c(c1)CC[C@H]2NC(=O)Nc1cccc2[nH]ncc12 [ABT-102]")
1.8

====

Form field: log10 IC50 (one value per entry).
target.entity: Transient receptor potential cation channel subfamily V member 1 (Homo sapiens, UniProt Q8NER1)
Sequence (Q8NER1 whole entry): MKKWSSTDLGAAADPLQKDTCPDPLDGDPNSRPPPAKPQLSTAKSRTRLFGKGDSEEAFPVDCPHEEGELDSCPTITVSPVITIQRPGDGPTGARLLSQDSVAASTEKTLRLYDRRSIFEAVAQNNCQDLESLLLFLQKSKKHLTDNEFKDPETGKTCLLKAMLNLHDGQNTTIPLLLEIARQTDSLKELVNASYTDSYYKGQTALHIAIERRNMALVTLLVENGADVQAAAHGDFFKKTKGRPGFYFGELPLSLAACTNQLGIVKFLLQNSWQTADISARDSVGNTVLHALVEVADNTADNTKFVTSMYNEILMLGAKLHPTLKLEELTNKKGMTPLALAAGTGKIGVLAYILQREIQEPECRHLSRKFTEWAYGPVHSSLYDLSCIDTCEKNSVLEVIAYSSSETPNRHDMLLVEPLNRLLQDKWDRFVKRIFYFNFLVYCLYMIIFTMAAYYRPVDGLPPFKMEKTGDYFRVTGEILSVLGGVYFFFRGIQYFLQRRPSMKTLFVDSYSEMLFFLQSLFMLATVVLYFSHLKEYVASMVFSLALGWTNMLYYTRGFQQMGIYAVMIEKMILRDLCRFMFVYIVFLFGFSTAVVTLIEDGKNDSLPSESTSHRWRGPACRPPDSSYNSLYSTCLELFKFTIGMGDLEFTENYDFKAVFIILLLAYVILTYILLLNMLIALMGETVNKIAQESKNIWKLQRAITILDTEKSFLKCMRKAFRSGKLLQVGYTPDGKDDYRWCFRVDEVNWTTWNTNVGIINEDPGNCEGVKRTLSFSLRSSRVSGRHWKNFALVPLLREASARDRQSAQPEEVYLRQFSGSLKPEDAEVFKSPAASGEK
assay.method.text: Blockade of human TRPV1 receptor assessed as inhibition of capsaicin-induced calcium flux
readout: log10 IC50 (log10 of the value in nM)

>>> value_observed("Cc1ccc2c(c1)CCC2NC(=O)Nc1cccc2[nH]ncc12 (stereo not given)")
1.04
>>> value_observed("O=C(Nc1cccc2[nH]ncc12)NC1CCc2ccccc21 (stereo not given)")
2.18
>>> value_observed("O=C(Nc1cccc2[nH]ncc12)NC1CCc2cc(N3CCCCC3)ccc21 (stereo not given)")
1.15
>>> value_observed("O=C(Nc1cccc2[nH]ncc12)NC1CCc2cc(C(F)(F)F)ccc21 (stereo not given)")
0.48
>>> value_observed("O=C(Nc1cccc2[nH]ncc12)NC1CCc2cc(Cl)ccc21 (stereo not given)")
1.00
>>> value_observed("O=C(Nc1cccc2[nH]ncc12)NC1CCc2cc(C3CC3)ccc21 (stereo not given)")
0.60
>>> value_observed("Cc1ccc2c(c1)C(NC(=O)Nc1cccc3[nH]ncc13)CC2 (stereo not given)")
3.86
>>> value_observed("CC(C)(C#N)c1cccc2c1CCC2NC(=O)Nc1cccc2[nH]ncc12 (stereo not given)")
1.28
>>> value_observed("O=C(Nc1cccc2[nH]ncc12)NC1CCc2c1cccc2N1CCOCC1 (stereo not given)")
1.81
>>> value_observed("O=C(Nc1cccc2[nH]ncc12)NC1CCc2cc(Br)ccc21 (stereo not given)")
0.95
>>> value_observed("O=C(Nc1cccc2[nH]ncc12)NC1CCc2c1ccc(F)c2N1CCOCC1 (stereo not given)")
0.70
>>> value_observed("O=C(Nc1cccc2[nH]ncc12)NC1CCc2c1cccc2N1CCC(C(F)(F)F)CC1 (stereo not given)")
0.85
>>> value_observed("O=C(Nc1cccc2[nH]ncc12)NC1CCOc2cc(C(F)(F)F)ccc21 (stereo not given)")
1.04
>>> value_observed("CC(C)(C)c1ccc2c(c1)CC[C@H]2NC(=S)Nc1cccc2[nH]ncc12")
1.99
>>> value_observed("O=C(Nc1cccc2[nH]ncc12)NC1CCc2c1cccc2N1CCCC1 (stereo not given)")
1.32
>>> value_observed("O=C(Nc1cccc2[nH]ncc12)NC1CCc2c1cccc2N1CCCCC1 (stereo not given)")
1.00
>>> value_observed("CC(C)(CO)c1ccc2c(c1)CC[C@H]2NC(=O)Nc1cccc2[nH]ncc12")
2.10
>>> value_observed("O=C(Nc1cccc2[nH]ncc12)NC1CCc2cc(F)ccc21 (stereo not given)")
1.72
>>> value_observed("COc1ccc2c(c1)CCC2NC(=O)Nc1cccc2[nH]ncc12 (stereo not given)")
1.60
>>> value_observed("CC(C)(C)c1ccc2c(c1)CC(F)C2NC(=O)Nc1cccc2[nH]ncc12 (stereo not given)")
1.54

====

assay.method.text: Oral bioavailability in rat at 10 umol/kg administered in PEG400
Assay type: ADME, organism-based
condition.label: in vivo
readout: bioavailability (%)

>>> value_observed("CC(C)(C)c1ccc2c(c1)CC[C@H]2NC(=O)Nc1cccc2[nH]ncc12")
70

====

assay.method.text: Volume of distribution beta in monkey at 5 umol/kg, iv administered in PEG400
Format: ADME, organism-based, Macaca mulatta
condition.label: rhesus monkey, in vivo, read-out: Vbeta
readout: Vd

>>> value_observed("CC(C)(C)c1ccc2c(c1)CC[C@H]2NC(=O)Nc1cccc2[nH]ncc12")
"1.7 L/kg"

====

assay.method.text: Permeability across human Caco-2 cells
Assay type: ADME, cell-based
readout: Papp

>>> value_observed("CC(C)(C)c1ccc2c(c1)CC[C@H]2NC(=O)Nc1cccc2[nH]ncc12")
"> 18 ×10⁻⁶ cm/s"

====

assay.method.text: Cmax in dog at 5 umol/kg, po administered in oleic acid/cremophor/PEG400 (80:10:10)
condition.label: in vivo
readout: Cmax (ng/mL)

>>> value_observed("CC(C)(C)c1ccc2c(c1)CC[C@H]2NC(=O)Nc1cccc2[nH]ncc12")
650

====

assay.method.text: Oral bioavailability in dog at 5 umol/kg administered in oleic acid/cremophor/PEG400 (80:10:10)
condition.label: in vivo
readout: bioavailability

>>> value_observed("CC(C)(C)c1ccc2c(c1)CC[C@H]2NC(=O)Nc1cccc2[nH]ncc12")
"60%"

====

assay.method.text: Volume of distribution beta in dog at 5 umol/kg, iv administered in PEG400
Format: ADME, organism-based, Canis lupus familiaris
condition.label: in vivo, read-out: Vbeta
readout: Vd (L/kg)

>>> value_observed("CC(C)(C)c1ccc2c(c1)CC[C@H]2NC(=O)Nc1cccc2[nH]ncc12 [ABT-102]")
1.6
